# SYSTEM TESTED: Prostaglandin G/H synthase 1 (Homo sapiens, UniProt P23219)
# Sequence (P23219 whole entry): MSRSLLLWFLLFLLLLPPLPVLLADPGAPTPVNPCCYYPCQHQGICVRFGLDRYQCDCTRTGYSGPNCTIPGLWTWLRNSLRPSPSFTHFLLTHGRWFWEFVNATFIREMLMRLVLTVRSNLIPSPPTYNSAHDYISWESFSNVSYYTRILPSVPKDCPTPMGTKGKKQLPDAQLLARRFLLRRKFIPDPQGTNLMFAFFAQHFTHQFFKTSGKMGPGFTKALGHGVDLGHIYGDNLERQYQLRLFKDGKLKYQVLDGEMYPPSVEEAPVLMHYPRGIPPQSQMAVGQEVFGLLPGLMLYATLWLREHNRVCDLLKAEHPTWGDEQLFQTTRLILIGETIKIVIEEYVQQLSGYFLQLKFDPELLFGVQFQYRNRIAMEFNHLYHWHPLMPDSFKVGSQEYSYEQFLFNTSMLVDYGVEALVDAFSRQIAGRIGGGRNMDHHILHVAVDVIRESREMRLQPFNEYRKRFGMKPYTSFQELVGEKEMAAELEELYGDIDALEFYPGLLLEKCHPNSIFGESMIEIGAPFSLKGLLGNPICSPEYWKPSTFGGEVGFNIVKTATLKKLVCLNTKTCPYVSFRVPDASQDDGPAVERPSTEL
# PROTOCOL DETAILS: Inhibition of COX1 expressed in CHO cells assessed as inhibition of arachidonic acid-stimulated PGE2 production by enzyme immunoassay
Quick rule for you: IC50 under 7 µM gets condition met, anything else gets condition not met.

| COMPOUND | DISCRETE LABEL |
| --- | --- |
| COc1ccc(-n2nc(COc3cc(F)cc(C4(OC)CCOCC4)c3)cc2-c2ccccc2)cc1 | condition met |

For "COC1(c2cc(F)cc(OCc3cc(-c4ccccc4)n(-c4ccc(S(N)(=O)=O)cc4)n3)c2)CCOCC1" , is the recorded IC50 below the cut-off of 7 µM?
condition not met

# check: IC50 < 7 µM for "COC1(c2cc(F)cc(OCc3cc(-c4ccccc4)n(-c4ccc(Cl)cc4)n3)c2)CCOCC1"
condition met

hey, is IC50 for "CS(=O)(=O)c1ccc(-n2nc(COc3cccc([N+](=O)[O-])c3)cc2-c2ccccc2)cc1" lower than 7 µM or not?
condition not met

---

# Organism: Homo sapiens
# PROTOCOL DETAILS: Selectivity for COX2 over COX1
MEASURED PARAMETER: Selectivity ratio
Returns: the value as a bare number; no unit string appended.

Return Selectivity ratio (reported value) for this compound: "COC1(c2cc(F)cc(OCc3cc(-c4ccccc4)n(-c4ccc(F)cc4)n3)c2)CCOCC1"
1

Provide only the value of recorded Selectivity ratio for "CS(=O)(=O)c1ccc(-n2nc(COc3cccc(N4CCOCC4)c3)cc2-c2ccccc2)cc1"
41

Dear colleague, please send me the reported Selectivity ratio for "COC1(c2cc(F)cc(OCc3cc(-c4ccccc4)n(-c4ccccc4)n3)c2)CCOCC1" when you can.
12

---

# SYSTEM TESTED: Prostaglandin G/H synthase 2 (Homo sapiens)
# Sequence (P35354 whole entry): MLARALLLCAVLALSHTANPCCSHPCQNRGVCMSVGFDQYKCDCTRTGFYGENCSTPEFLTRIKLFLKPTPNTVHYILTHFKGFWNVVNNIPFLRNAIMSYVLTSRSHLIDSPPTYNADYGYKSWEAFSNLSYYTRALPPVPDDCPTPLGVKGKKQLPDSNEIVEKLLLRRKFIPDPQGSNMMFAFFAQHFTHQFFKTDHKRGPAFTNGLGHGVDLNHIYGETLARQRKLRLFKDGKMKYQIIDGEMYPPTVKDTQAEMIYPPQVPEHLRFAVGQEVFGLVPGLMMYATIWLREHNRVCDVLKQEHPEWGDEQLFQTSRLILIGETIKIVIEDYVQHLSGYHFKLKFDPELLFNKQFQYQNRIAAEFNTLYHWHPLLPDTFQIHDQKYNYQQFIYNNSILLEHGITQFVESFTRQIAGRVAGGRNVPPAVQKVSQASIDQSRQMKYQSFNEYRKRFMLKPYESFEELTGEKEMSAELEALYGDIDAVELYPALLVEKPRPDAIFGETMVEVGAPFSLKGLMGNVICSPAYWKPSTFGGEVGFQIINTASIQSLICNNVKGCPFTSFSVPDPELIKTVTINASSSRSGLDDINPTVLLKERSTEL
# PROTOCOL DETAILS: Inhibition of COX2 expressed in CHO cells assessed as inhibition of arachidonic acid-stimulated PGE2 production by enzyme immunoassay
MEASURED PARAMETER: pIC50
# pIC50: negative log10 of molar concentration; output just the value

Illustrative cases are given below, each with its answer.
| SMILES RECORD | pIC50 |
| --- | --- |
| CS(=O)(=O)c1ccc(-n2nc(COc3cc(F)cc(C#N)c3)cc2-c2ccccc2)cc1 | 6.24 |
| COc1cc(F)cc(OCc2cc(-c3ccccc3)n(-c3ccc(S(C)(=O)=O)cc3)n2)c1 | 6.51 |
| COC1(c2cc(F)cc(OCc3cc(-c4ccccc4)n(-c4ccccc4)n3)c2)CCOCC1 | 6.21 |
| COC1(c2cc(F)cc(OCc3cc(-c4ccccc4)n(-c4ccc(S(N)(=O)=O)cc4)n3)c2)CCOCC1 | 7.00 |
| COC1(c2cc(F)cc(OCc3cc(-c4ccccc4)n(-c4ccc(C)cc4)n3)c2)CCOCC1 | 6.03 |
| CS(=O)(=O)c1ccc(-n2nc(COc3cccc(N4CCOCC4)c3)cc2-c2ccccc2)cc1 | 6.04 |
| COC1(c2cc(F)cc(OCc3cc(-c4ccccc4)n(-c4ccc(C)c(C)c4)n3)c2)CCOCC1 | 6.39 |
| COc1ccc(OCc2cc(-c3ccccc3)n(-c3ccc(S(C)(=O)=O)cc3)n2)cc1OC | 6.15 |

Give recorded pIC50. "COC1(c2cc(F)cc(OCc3cc(-c4ccccc4)n(-c4ccc(Cl)cc4)n3)c2)CCOCC1"
6.03

For the molecule "COc1cc(OCc2cc(-c3ccccc3)n(-c3ccc(S(C)(=O)=O)cc3)n2)cc(OC)c1OC" , give its reported pIC50.
6.66
